# Target desc: GDP-bound KRAS wild-type protein (Homo sapiens)
# Protocol text: Binding to KRAS by surface plasmon resonance (SPR), Single Cycle Kinetics
# Condition label: SPR Single Cycle Kinetics, GDP-bound KRAS wild-type protein, 1:1 binding model; read-out: KRAS KD
Where a SMILES comes first, the peptide text is derived from it. Bridges are numbered along the chain shown (N, C = ends). [ ]: non-standard residue; d: D form. The star is where a group is joined. hPhe(3-Cl-4-CF3) = N[C@@H](CCc1ccc(C(F)(F)F)c(Cl)c1)C(=O)O; NPrPhe(4-CF3) = CCCN[C@@H](Cc1ccc(C(F)(F)F)cc1)C(=O)O; NMeGly(cPent) = CN[C@H](C(=O)O)C1CCCC1; Gly(N-propargyl) = C#CCNCC(=O)O; NMeD = CN[C@@H](CC(=O)O)C(=O)O; NMeL = CN[C@@H](CC(C)C)C(=O)O; Morpholide = C1CN(*)CCO1; Ac5c = NC1(C(=O)O)CCCC1; Ac4c = NC1(C(=O)O)CCC1; Sar = CNCC(=O)O
Measured Kd accompanies every entry in the list below.
Report the figure in nM without appending any unit label.

# Molecule, Kd [nM]
records = [
    ("C#CCN1CC(=O)N(C)CC(=O)N(CCC)[C@@H](Cc2ccc(C(F)(F)F)cc2)C(=O)N(C)CC(=O)N[C@@H](CCc2ccc(C(F)(F)F)c(Cl)c2)C(=O)N2CCC[C@H]2C(=O)NC2(CCCC2)C(=O)N(C)[C@@H](C2CCCC2)C(=O)N(C)[C@H](C(=O)N2CCOCC2)CC(=O)N(C)[C@@H](CC(C)C)C(=O)N[C@@H]([C@@H](C)CC)C1=O [PP0750] ([NMeL]I[Gly(N-propargyl)][Sar][NPrPhe(4-CF3)][Sar][hPhe(3-Cl-4-CF3)]P[Ac5c][NMeGly(cPent)][NMeD]-Morpholide; lactam N-11)", 0.37),
]

--- query ---
In: Item CCCN1C(=O)CN(C)C(=O)CNC(=O)[C@H]([C@@H](C)CC)NC(=O)[C@H](CC(C)C)N(C)C(=O)C[C@@H](C(=O)N(C)C)NC(=O)[C@H](C2CCCC2)N(C)C(=O)C2(CCC2)NC(=O)[C@@H]2CCCN2C(=O)[C@H](CCc2ccc(C(F)(F)F)c(Cl)c2)NC(=O)CN(C)C(=O)[C@@H]1Cc1ccc(C(F)(F)F)cc1 [PP0362] ([NMeL]IG[Sar][NPrPhe(4-CF3)][Sar][hPhe(3-Cl-4-CF3)]P[Ac4c][NMeGly(cPent)]D-NMe2; lactam N-11) has what recorded Kd?
Out: 1

----------
Quick reference for Kd among some molecules
# Target desc: GDP-bound KRAS wild-type protein (Homo sapiens, UniProt P01116)
# Sequence (P01116 whole entry): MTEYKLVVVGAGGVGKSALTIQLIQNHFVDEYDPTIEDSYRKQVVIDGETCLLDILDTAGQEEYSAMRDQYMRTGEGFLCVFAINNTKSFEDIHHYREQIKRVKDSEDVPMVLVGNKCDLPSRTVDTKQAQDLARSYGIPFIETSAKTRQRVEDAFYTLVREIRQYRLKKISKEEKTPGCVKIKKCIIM
# Protocol text: Binding to KRAS by surface plasmon resonance (SPR), Single Cycle Kinetics
# Condition label: SPR, Single Cycle Kinetics, 1:1 binding model; GDP-bound KRAS wild-type protein; read-out: KRAS KD
Your answer should be a plain number; it is taken to be in pM.

# Test smiles, Measured number
records = [
    ("CCO[C@@H]1C[C@H]2C(=O)NC3(CCC3)C(=O)N(C)[C@@H](C3CCCC3)C(=O)N(C)[C@H](C(=O)N3CCOCC3)CC(=O)N(C)[C@@H](CC(C)C)C(=O)N[C@@H]([C@@H](C)CC)C(=O)N3CC[C@H]3C(=O)N(C)[C@H]3C[C@@H](C)[C@@H](C)CN(C3=O)[C@@H](Cc3ccc(C(F)(F)F)cc3)C(=O)N(C)CC(=O)N[C@@H](CCc3ccc(C(F)(F)F)c(Cl)c3)C(=O)N2C1", 150),
    ("CC[C@H](C)[C@@H]1NC(=O)[C@H](CC2CC2)N(C)C(=O)C[C@@H](C(=O)N(C)C)N(C)C(=O)[C@H](C2CCCC2)N(C)C(=O)C2(CCC2)NC(=O)[C@@H]2[C@@H](OCC(F)F)CCN2C(=O)[C@H](CCc2cc(F)c(C(F)(F)F)c(F)c2)NC(=O)CN(C)C(=O)[C@H](Cc2ccc(C(F)(F)F)cc2)N2CC/C=C\\C[C@@H](C2=O)N(C)C(=O)CN(C)C1=O", 130),
    ("CCO[C@@H]1C[C@H]2C(=O)NC3(CCC3)C(=O)N(C)[C@@H](C3CCCC3)C(=O)N(C)[C@H](C(=O)N(C)C)CC(=O)N(C)[C@@H](CC3CC3)C(=O)N[C@@H]([C@@H](C)CC)C(=O)N(C)CC(=O)N(C)[C@H]3C/C=C\\CCN(C3=O)[C@@H](CC3CCCCC3)C(=O)N(C)CC(=O)N[C@@H](CCc3cc(F)c(C(F)(F)F)c(F)c3)C(=O)N2C1", 200),
    ("CC[C@H](C)[C@@H]1NC(=O)[C@H](CC2CC2)N(C)C(=O)C[C@@H](C(=O)N(C)C)N(C)C(=O)[C@H](C2CCCC2)N(C)C(=O)C2(CC(C)(C)C2)NC(=O)[C@@H]2C[C@@H](C(F)(F)F)CN2C(=O)[C@H](CCc2cc(F)c(C(F)(F)F)c(F)c2)NC(=O)CN(C)C(=O)[C@H](Cc2ccc(C(F)(F)F)cc2)N2CC/C=C\\C[C@@H](C2=O)N(C)C(=O)CN(C)C1=O", 320),
    ("CCO[C@@H]1C[C@H]2C(=O)NC3(CCC3)C(=O)N(C)[C@@H](C3CCCC3)C(=O)N(C)[C@H](C(=O)N(C)C)CC(=O)N(C)[C@@H](CC3CCCC3)C(=O)N[C@@H]([C@@H](C)CC)C(=O)N(C)CC(=O)N(C)[C@H]3C/C=C\\CCN(C3=O)[C@@H](Cc3ccc(F)cc3)C(=O)N(C)CC(=O)N[C@@H](CCc3cc(F)c(C(F)(F)F)c(F)c3)C(=O)N2C1", 120),
]

In: Request the reported Kd associated with CC[C@H](C)[C@@H]1NC(=O)[C@H](CC2CC2)N(C)C(=O)C[C@@H](C(=O)N2CCCC2)N(C)C(=O)[C@H](C2CCCC2)N(C)C(=O)C2(CCC2)NC(=O)[C@@H]2CC(F)(F)CN2C(=O)[C@H](CCc2cc(F)c(C(F)(F)F)c(F)c2)NC(=O)CN(C)C(=O)[C@H](Cc2ccc(C(F)(F)F)cc2)N2CC/C=C\C[C@@H](C2=O)N(C)C(=O)CN(C)C1=O
Out: 84
